- Tested on: RPS6KA5(Kin.Dom.1-N-terminal)
- Conditions used: concentration: 1 μM, replicates: in singlicate; n = 1;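 further: KINOMEscan kinase panel screen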
Parameter: %Inh (%)
# unit: % | format: bare number

Answered examples (3):
[[record]]
smiles_structure = "N#Cc1cnc2cc(-c3cnc(CNCCN4CCOCC4)s3)ccc2c1Nc1ccc(Oc2ccccc2)cc1"
parameter = "%Inh"
observed_measurement = 76

[[record]]
smiles_structure = "Cc1ccc(NC(=O)c2cccc(N3CCCCC3)c2)cc1-c1ccc(C(=O)NCC2CC2)cc1"
parameter = "%Inh"
observed_measurement = 33

[[record]]
smiles_structure = "CNc1nccc(-c2ccc3c(N)n[nH]c3c2)n1"
parameter = "%Inh"
observed_measurement = 19


Exam item: // query %Inh value for entry "COc1cccc(NC(=O)NCCNc2ccnc(Nc3ccc(F)cc3)n2)c1"
Marked response: 0

Exam item: I have this compound here, "CN(c1ccc(F)c(NC(=O)c2cccc(OC(C)(C)C#N)c2Cl)c1)c1ccc2nc(NC(=O)C3CC3)sc2n1" , and I need its recorded %Inh.
Marked response: 11

Exam item: Requested read-out: %Inh. Entry: "CCOc1nccc(-c2c(-c3ccc(F)cc3)ncn2C2CCNCC2)n1"
Marked response: 100

Exam item: If you can, please state the reported %Inh value of "Cl.N#CCc1ccc(Nc2nccc(Nc3ccc(Oc4ccccc4)cc3)n2)cc1" .
Marked response: 0

Exam item: Tell me the measured %Inh of "Cc1nn2c(=O)cc(N3CCO[C@H](C)C3)nc2n1Cc1cccc(Cl)c1Cl" , please.
Marked response: 19

----------
- Test system: EPHB4
- Conditions used: concentration: 1 μM, replicates: in singlicate; n = 1
Listed here are molecules together with their documented %Inh.
Give your result in % as a bare value.

[[record]]
molecule = "COc1cccc(CC(=O)N2CCc3cc(-c4cn(C)c5ncnc(N)c45)ccc32)c1 [GSK2608899]"
unit_of_measure = "%"
observed_measurement = 0

[[record]]
molecule = "COc1cc(Nc2ccnc3cc(-c4ccncc4)ccc23)cc(OC)c1OC.Cl [GW494610]"
unit_of_measure = "%"
observed_measurement = 50

[[record]]
molecule = "Fc1cc(Cl)ccc1Nc1ccnc2cc(-c3ccc(CN4CCOCC4)o3)ccc12 [GW560109]"
unit_of_measure = "%"
observed_measurement = 55

[[record]]
molecule = "CN(c1ccc2c(c1)nc(NCc1ccccc1)n2C)c1ccnc(Nc2ccc(CS(C)(=O)=O)cc2)n1.Cl [GW811603]"
unit_of_measure = "%"
observed_measurement = 2

[[record]]
molecule = "COC(=O)Nc1nc2cc(Oc3ccc(NC(=O)Nc4cccc(SC)c4)cc3)ccc2[nH]1.Cl [GW697999]"
unit_of_measure = "%"
observed_measurement = 70

[[record]]
molecule = "CSc1ccc(NC2=C(c3ccc(Cl)cc3)C(=O)NC2=O)cc1 [SB-317658]"
unit_of_measure = "%"
observed_measurement = 11


Exam item: I am curious: what %Inh value has been reported for O=C(O)C(F)(F)F.O=c1[nH]ccc2nc(N[C@@H]3CCNC3)nc(Nc3ccc4c(c3)S(=O)(=O)CC4)c12 [GSK2181306] ?
Marked response: 8

Exam item: # get_value(readout='%Inh', item= Cl.Cl.NCC(NC(=O)c1cc(-c2cccnc2)c(-c2ccnc3[nH]ccc23)s1)c1ccccc1 (stereo not shown) [GSK1323434] )
Marked response: 18

Exam item: Using the record for CCn1c(-c2nonc2N)nc2c(-c3ccccc3)ncc(OCCCN)c21.O=C(O)C(F)(F)F.O=C(O)C(F)(F)F [GSK260205] , report its %Inh.
Marked response: 7

Exam item: // returns reported %Inh for input O=C(Nc1n[nH]c2cc(-c3cccs3)ccc12)C1CC1 [SB-731284]
Marked response: 0

Exam item: Requested field: %Inh. Item: CNc1nccc(-c2ccc3c(N)n[nH]c3c2)n1 [GSK2206003]
Marked response: 2

Exam item: Give the measured %Inh of CN(C)CCOc1ccc(-c2cc(-c3ccc(Cl)c(O)c3)c(-c3ccncc3)[nH]2)cc1.Cl.Cl [SB-684387] .
Marked response: 23

Exam item: Endpoint output: %Inh of Cc1cc(-c2c(-c3ccc(F)cc3)ncn2CCCN2CCOCC2)nc(N)n1 [SB-222517] . Value?
Marked response: 10

Exam item: Would you mind telling me what %Inh value was observed for Cl.Cl.NC(CNC(=O)c1cc(Br)c(-c2ccnc3[nH]ccc23)s1)c1ccccc1 (stereo not shown) [GSK1322949] ?
Marked response: 3

Exam item: Returns the measured %Inh for the input molecule. Input: N#Cc1cnc2cc(-c3cnc(CNCCN4CCOCC4)s3)ccc2c1Nc1ccc(Oc2ccccc2)cc1 [GW664114]
Marked response: 10

Exam item: I have this molecule here, c1ccc(Oc2ccc(Nc3ccnc4cc(-c5ccc(CN6CCCCC6)o5)ccc34)cc2)nc1 [GW567143] , and I need its recorded %Inh.
Marked response: 7
